Data provenance is ChEMBL document CHEMBL1201862.

# Measurement target: Luciferin 4-monooxygenase (Photinus pyralis, UniProt P08659)
# Sequence (P08659 whole entry): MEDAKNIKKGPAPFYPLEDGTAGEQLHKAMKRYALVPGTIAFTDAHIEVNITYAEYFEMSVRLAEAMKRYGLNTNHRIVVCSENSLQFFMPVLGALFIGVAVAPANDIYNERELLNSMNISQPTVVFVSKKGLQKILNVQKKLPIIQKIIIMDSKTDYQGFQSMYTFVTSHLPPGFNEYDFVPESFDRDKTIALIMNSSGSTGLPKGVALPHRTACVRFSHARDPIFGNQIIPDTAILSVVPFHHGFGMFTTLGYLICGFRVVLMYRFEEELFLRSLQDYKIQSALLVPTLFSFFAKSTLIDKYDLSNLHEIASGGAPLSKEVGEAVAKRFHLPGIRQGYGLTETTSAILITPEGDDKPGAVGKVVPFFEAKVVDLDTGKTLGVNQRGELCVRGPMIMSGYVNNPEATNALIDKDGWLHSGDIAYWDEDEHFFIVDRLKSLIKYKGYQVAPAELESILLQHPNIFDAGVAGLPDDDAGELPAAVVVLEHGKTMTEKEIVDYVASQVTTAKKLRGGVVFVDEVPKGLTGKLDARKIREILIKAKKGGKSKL
# Test details: inhibition of purified Photinus pyralis luciferase – biochemical, luminescence, dose response (AID 1891)
The source made the active and inactive calls. No stated cut-off is given here; in the data, actives have a measured EC50 and inactives only a lower limit.
The entries below are paired with their reported EC50.

Below, each entry is followed by its recorded EC50 result.
CCC(=O)Oc1ccc(-c2nc(-c3cccnc3)no2)cc1: 4.33 µM (active)
COc1cc(/C=N/NC(N)=O)ccc1OCC(=O)Nc1ccc(C)c(C)c1: > 112 µM (not active)
CCCCC[C@H](O)/C=C/[C@H]1[C@H](O)CC(=O)[C@@H]1CCCCCCC(=O)O: > 112 µM (not active)

GET /values?readout=EC50&item= `Cc1c(C)c2ccc(OCC(=O)Nc3ccccn3)c(C)c2oc1=O` 0.629 µM (active)

Please look up its EC50: `O=C(O)/C=C/c1cccc(NC(=O)c2ccccc2)c1` 4.49 µM (active)

I'd like to know its EC50. The compound in question is `N=C(NOC(=O)c1ccc(Cl)cc1)c1[nH]ncc1Br` 0.882 µM (active)
